- subject-of-test: Cyclin-dependent kinase 2/cyclin A (Homo sapiens)
- assay-summary: Inhibition of CDK2/Cyclin A2 in human HeLa cell extracts using histone H1 as substrate preincubated for 30 mins before substrate addition measured after 15 mins by autoradiography
pIC50: −log10 of the molar value.

- compound-structure: "N#Cc1c(-c2ccc(Br)s2)n([C@H]2O[C@@H](CO)[C@@H](O)[C@@H]2O)c2ncnc(N)c12"
  pIC50: 4.26
- compound-structure: "N#Cc1c(-c2cccs2)n([C@H]2O[C@@H](CO)[C@@H](O)[C@@H]2O)c2ncnc(N)c12"
  pIC50: 5.34
- compound-structure: "N#Cc1c(-c2ccco2)n([C@H]2O[C@@H](CO)[C@@H](O)[C@@H]2O)c2ncnc(N)c12"
  pIC50: 5.32
- compound-structure: "NC(=O)c1c(Br)n([C@H]2O[C@@H](CO)[C@@H](O)[C@@H]2O)c2ncnc(N)c12"
  pIC50: 7.21

---

- subject-of-test: Cyclin-dependent kinase 1/cyclin B1 (Homo sapiens, UniProt P06493)
- Sequence (P06493 whole entry): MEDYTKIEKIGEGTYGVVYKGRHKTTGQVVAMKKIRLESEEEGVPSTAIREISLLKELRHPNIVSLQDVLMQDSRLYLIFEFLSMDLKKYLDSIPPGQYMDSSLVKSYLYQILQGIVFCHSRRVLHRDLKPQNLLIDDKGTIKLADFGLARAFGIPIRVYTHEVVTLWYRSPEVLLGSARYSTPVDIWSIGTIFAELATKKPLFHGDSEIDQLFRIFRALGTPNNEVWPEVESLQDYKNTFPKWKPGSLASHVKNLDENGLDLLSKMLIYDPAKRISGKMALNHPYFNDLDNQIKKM
- Sequence (P14635 whole entry, further chain): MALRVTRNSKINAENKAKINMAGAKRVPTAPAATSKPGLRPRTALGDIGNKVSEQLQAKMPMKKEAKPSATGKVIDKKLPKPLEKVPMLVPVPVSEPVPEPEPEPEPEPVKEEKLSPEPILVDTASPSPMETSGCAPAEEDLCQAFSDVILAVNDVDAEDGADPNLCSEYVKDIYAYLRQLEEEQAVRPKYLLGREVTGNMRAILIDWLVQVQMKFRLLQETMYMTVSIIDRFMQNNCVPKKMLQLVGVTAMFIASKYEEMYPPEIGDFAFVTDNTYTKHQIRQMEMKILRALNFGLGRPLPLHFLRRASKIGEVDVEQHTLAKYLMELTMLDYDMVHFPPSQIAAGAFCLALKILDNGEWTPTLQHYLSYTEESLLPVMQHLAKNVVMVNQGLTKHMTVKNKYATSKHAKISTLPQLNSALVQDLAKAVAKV
- assay-summary: Inhibition of CDK1/Cyclin B in human HeLa cell extracts using histone H1 as substrate preincubated for 30 mins before substrate addition measured after 15 mins by autoradiography
As shown below, each of these compounds has a reported IC50 value.

- compound: "N#Cc1c(-c2cccs2)n([C@H]2O[C@@H](CO)[C@@H](O)[C@@H]2O)c2ncnc(N)c12"
  IC50: "> 100 µM"
- compound: "N#Cc1c(-c2ccc(Br)s2)n([C@H]2O[C@@H](CO)[C@@H](O)[C@@H]2O)c2ncnc(N)c12"
  IC50: "> 100 µM"
- compound: "NC(=O)c1c(Br)n([C@H]2O[C@@H](CO)[C@@H](O)[C@@H]2O)c2ncnc(N)c12 [XYLOCYDINE]"
  IC50: "0.0014 µM"
- compound: "N#Cc1c(-c2ccco2)n([C@H]2O[C@@H](CO)[C@@H](O)[C@@H]2O)c2ncnc(N)c12"
  IC50: "> 100 µM"
